// provenance: PubChem BioAssay (Tox21)

Assay: Caspase-3/7 induction in HepG2 cells by small molecules, qHTS cell viability counter screen (AID 1346981); further: on the % scale 0 is the no-effect control and ±100 the full control effect; nearly all actives have a fitted effect of over 30% in size
Details: CellTiter-Fluor fluorescence, 17 h; series mostly up to 92.4 µM
Results filed as inconclusive are left out. Calls of active or inactive are those of the source. The call rests on the fitted dose curve; in most records, active means well fitted cell-killing curve with a large enough effect in the repeat runs; inconclusive means weak or mixed curves, or effect the other way; inactive means flat fitted curve, though single readings scatter.
outcome.measure: activity change, negative = cytotoxicity

Could you tell me which activity change, negative = cytotoxicity is on file for CCC(=O)CC(C)CC (stereo not drawn) ?
6.32% [at 0.349 µM] (inactive)

What measured activity change, negative = cytotoxicity goes with N[C@@H](CSSC[C@H](N)C(=O)O)C(=O)O ?
6.72% [at 0.349 µM] (inactive)

Entry S=C(SSSSSSC(=S)N1CCCCC1)N1CCCCC1 : reported activity change, negative = cytotoxicity = ?
7.87% [at 19 µM] (inactive)

What activity change, negative = cytotoxicity value was documented for this compound, O=C=NCc1cccc(CN=C=O)c1 ?
9.74% [at 19 µM] (inactive)

Find the recorded activity change, negative = cytotoxicity belonging to CCCCCCCCCCCCCCCCCO and report it.
9.49% [at 19 µM] (inactive)

Which activity change, negative = cytotoxicity is reported for this compound? C=CC(=C)CC/C=C(\C)CCC=C(C)C
-2.86% [at 19 µM] (inactive)

Name the recorded activity change, negative = cytotoxicity for O=S(=O)(O)c1cc(S(=O)(=O)O)c2ccc3c(S(=O)(=O)O)cc(S(=O)(=O)O)c4ccc1c2c43 .
6.28% [at 19 µM] (inactive)

What activity change, negative = cytotoxicity value was documented for this compound, C=C/C=C/C=C/CCCCC ?
-1.07% [at 19 µM] (inactive)

* * *

Test: qHTS RealTime-Glo MT Cell Viability Assay in HEK293 cells - 24 hour (AID 1224886); further: nearly all actives have a fitted effect of over 50% in size; further: potency means the concentration at half of the fitted maximal effect
Settings: RealTime-Glo luminescence; series mostly up to 76.8 µM
Records with an inconclusive call do not appear. Activity calls are given as the source filed them. Calls come from the whole dose curve; as a rule, active = well fitted cell-killing curve with a large enough effect in the repeat runs; inconclusive = weak or mixed curves, or effect the other way; inactive = flat fitted curve, though single readings scatter.
outcome.measure: Potency

Example cases with answers are listed next.
[
  {
    "molecule": "CCC(C)c1ccccc1 (centres undefined)",
    "Potency": "inactive"
  },
  {
    "molecule": "Brc1ccccc1-c1ccccc1",
    "Potency": "inactive"
  },
  {
    "molecule": "O=C1OC(=O)c2ccc3c4c(ccc1c24)C(=O)OC3=O",
    "Potency": "inactive"
  },
  {
    "molecule": "Cc1cccc(C)n1",
    "Potency": "inactive"
  },
  {
    "molecule": "CC=O",
    "Potency": "0.575 µM (active)"
  }
]

Requested field: Potency. Item: CCCCCCCC(=O)OCC
inactive

Entry O=S(=O)(O)CCCN1CCOCC1 has what Potency?
inactive

Form field: reported Potency of CCCCNc1c(C(=O)OCC)c(C)nc2c1cnn2CC
12 µM (active)

# Potency lookup, item O=C(Nc1ccc(Cl)cc1)Nc1ccc(Cl)c(C(F)(F)F)c1
5.35 µM (active)

Which measured Potency value corresponds to CC1(C)C(=O)N(CO)C(=O)N1CO ?
inactive

Consider the molecule CC(=O)Oc1ccc(C2(c3ccc(OC(C)=O)cc3)Oc3ccccc3NC2=O)cc1 and give its measured Potency.
inactive

Find the recorded Potency belonging to O=C(Nc1ccc(Cl)c(Cl)c1)c1cc(Cl)cc(Cl)c1O and report it.
4.9 µM (active)

Which Potency is listed for CC(C)=CCCC(C)CCOC(=O)C(C)C (centres undefined) ?
inactive
